Tested on: HOS
Test: In vitro cytotoxic activity, Calcein AM assay, HOS
Assay type: cell-based
Conditions: 72 hours
pIC50: −log10 of the molar value.
pIC50 values for the compounds below.

## Task Could you share which pIC50 value was measured for COc1cccc(CNc2nc(SC)nc3c2ncn3[C@@H]2O[C@H](CO)[C@@H](O)[C@H]2O)c1 ?
## Result < 3.78

## Task # pIC50 lookup, item OC[C@H]1O[C@@H](n2cnc3c(NCc4ccc(Br)cc4)ncnc32)[C@H](O)[C@@H]1O [4-bromobenzylamino, 6-(4-bromobenzylamino)purine riboside]
## Result < 3.78

====

Test system: spring wheat (variety Sandra)
Experiment: Field studies: yield analysis of spring wheat crop
Format: in vivo
Details: spray of 10^−6 molar solution, Control = 100.0
Recorded measurements of HTS (%) (1000 grain weight), one per entry
Could you give me the number in %? Just the number is fine.

Examples with answers:
OC[C@H]1O[C@@H](n2cnc3c(NCc4ccccc4)ncnc32)[C@H](O)[C@@H]1O [BAPR, 6-benzylaminopurine riboside, reference compound] : 103.8
OC[C@H]1O[C@@H](n2cnc3c(NCc4cccc(Cl)c4)ncnc32)[C@H](O)[C@@H]1O [3-chlorobenzylamino, 6-(3-chlorobenzylamino)purine riboside] : 108.3
OC[C@H]1O[C@@H](n2cnc3c(NCc4ccc(Cl)c(Cl)c4)ncnc32)[C@H](O)[C@@H]1O [3,4-dichlorobenzylamino] : 101.5
OC[C@H]1O[C@@H](n2cnc3c(NCc4cccc(Br)c4)ncnc32)[C@H](O)[C@@H]1O [3-bromobenzylamino, 6-(3-bromobenzylamino)purine riboside] : 101.5

## Task Which value of HTS (%) (1000 grain weight) has been reported for c1ccc(CNc2ncnc3nc[nH]c23)cc1 [BAP, 6-benzylaminopurine, reference compound] in the records?
## Result 102.0
